# Tested on: Zika virus NS2B-NS3 protease (unlinked complex)
# ASSAY_INFO: Primary screen GU Rhodamine qHTS for Zika virus inhibitors: Unlinked NS2B-NS3 protease assay (AID 1347159); also: nearly all actives have a fitted effect of over 60% in size
# CONDITIONS: Recombinant ZIKV NS2B-NS3 protease, Rhodamine110 substrate fluorescence; series mostly up to 107 µM
Records with an inconclusive call do not appear. The source made the active and inactive calls. Calls follow the shape of the dose curve; as a rule, active = well fitted inhibition curve with a large enough effect; inconclusive = small, poorly fitted or top-dose-only effect; inactive = no such curve, though single readings can be large or run the other way.
Give your call using only these classes: 1.0 for active, 0.0 for inactive

What did the test return for CCN1CC2(COC)C3[C@@H](OC)C4C1C3(C1C[C@]3(O)[C@H](OC(=O)c5ccccc5)C1[C@]4(OC(C)=O)[C@@H](O)[C@@H]3OC)[C@H](OC)C[C@H]2O (some centres not stated) ? 1.0

// next record `COc1cc(C(=O)O[C@H]2[C@@H]3C=CO[C@@H](O[C@@H]4O[C@H](CO)[C@@H](O)[C@H](O)[C@H]4O)[C@@H]3[C@@]3(CO)O[C@@H]23)ccc1O` 0.0

Quick one: `C=C[C@H]1CN2CC[C@H]1C[C@@H]2[C@@H](O)c1ccnc2ccccc12` 0.0

Same question, `Cc1cc(C(=O)CN2CCCC2)c(C)n1-c1ccc(F)cc1` this time 0.0

Please do the same for CCOc1ccccc1-n1c(C(C)N2CCN(C(=O)COc3ccc(Cl)cc3)CC2)nc2ccccc2c1=O (configuration not stated) as well. 0.0

Would you mind doing CC(C)C1(OO)C=C2C(=O)CC3C(C)(C(=O)O)CCCC3(C)C2CC1 (configuration not stated) as well? 0.0

Subsequent entry: `N#C[C@@H](O[C@@H]1O[C@H](CO[C@@H]2O[C@H](CO)[C@@H](O)[C@H](O)[C@H]2O)[C@@H](O)[C@H](O)[C@H]1O)c1ccccc1` 0.0

---

# ASSAY_INFO: qHTS for Inhibitors of ATXN expression: Validation (AID 588378); also: nearly all actives have a fitted effect of over 75% in size
# CONDITIONS: cell-based ATXN2 expression reporter assay, luminescence; series mostly up to 57.1 µM
Records with an inconclusive call do not appear. The source made the active and inactive calls. Calls come from the whole dose curve; as a rule, active = well fitted inhibition curve with a large enough effect; inconclusive = small, poorly fitted or top-dose-only effect; inactive = no such curve, though single readings can be large or run the other way.
Choose one outcome from this list and give only that: y = active, n = inactive

// return assay outcome for CCCC[N+]1(C)C2CC(OC(=O)[C@H](CO)c3ccccc3)CC1C1OC12 (stereo not given in full) n

Would you kindly repeat that for `CCS(=O)(=O)Nc1cccc(C(=C2CCCCC2)c2cnc[nH]2)c1` ? n

Note, next up: `Clc1ccc(N2CC3CCC(C2)N3)nn1` n

Request: CC(N)Cc1c[nH]c2ccc(O)cc12 (stereo not given) n

Further, for `CP(=O)(O)C1=CCNCC1` ? n

Also, C[N+]1(C)C2CCC1CC(OC(=O)c1c[nH]c3ccccc13)C2 (stereo not given) please. n

And what about the compound `N#CCCN` ? n

Now consider `NC(=O)COc1c(F)cc(SCCNS(=O)(=O)c2ccccc2)cc1F` and answer again. n

Next up: `C[N+](C)(C)CC#CCN1CCCC1=O` n

Continue with `O=[N+]([O-])/C=C/c1ccc2c(c1)OCO2` y

Now consider `Cc1cc([C@@H]2CCCN2C)on1` . n

And `CC(C)NP(=O)(NC(C)C)OP(=O)(NC(C)C)NC(C)C` ? n

Another compound to check: `CCNC(=O)[C@H]1O[C@@H](n2cnc3c(N)ncnc32)[C@H](O)[C@@H]1O` n

Then what about the compound `Clc1cc(I)cc(Cl)c1NC1=NCCN1` ? n

Let us now turn to `c1ccc2cc(CC3=NCCN3)ccc2c1` n

How about OC1CCCCC1N1CCC(c2ccccc2)CC1 (stereo not given) ? n

# repeat for `CCOC(=O)c1ncn2c1[C@@H]1CCCN1C(=O)c1cc(OC)ccc1-2` n

Similarly, `COc1ccc2c(c1O)-c1cccc3c1[C@@H](C2)N(C)CC3` ? n

Moving on to the next compound: CC12NC(Cc3ccccc31)c1ccccc12 (stereo not given) n

Same lookup for C[N+]1(C)CCOC(O)(c2ccc(-c3ccc(C4(O)C[N+](C)(C)CCO4)cc3)cc2)C1 (stereo not given) , please. n

For `C[N+]1(C)CCc2cc3c(cc2[C@H]1[C@@H]1OC(=O)c2c1ccc1c2OCO1)OCO3` then? n

// same read-out, input: `NNC(=O)c1ccc(O)cc1` n

Another compound to look at: CC(C)(O)[C@@H]1C2OC(=O)[C@@H]1[C@]1(O)C[C@H]3O[C@]34C(=O)O[C@H]2[C@]14C (tested in a mixture with another compound) n

Lookup `CN1CCC(c2c[nH]c3ccc(O)cc23)CC1` n

Lookup `NNC(N)=O` n

---

# ASSAY_INFO: qHTS assay for small molecule antagonists of peroxisome proliferator-activated receptor delta signaling (AID 588535);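 also: cells co-treated with a PPAR-delta agonist as stimulator during compound exposure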
# CONDITIONS: HEK293T PPARd-UAS-bla, beta-lactamase FRET ratio, 18 h; 460 nm channel
Records with an inconclusive call do not appear.
Hi, to clarify the labels: 1 covers max response from 20% upward, -1 covers anything below 20%.

Can `[O]=[Cr](=[O])([OH])[O][Cr](=[O])(=[O])[OH]` be said to have max response at or above 20%? -1

Lookup `O=C1CCO1` -1

Same again, this time with `O=C/C=C/c1ccccc1` -1

Continue with `ClC(Cl)(Cl)Cl` 1

Try this compound too: `C=CCN=C=S` -1

Do the same for `N#CN` please 1

Lookup `O=C(O)C(Cl)(Cl)Cl` -1

---

# Test system: 7G8
# ASSAY_INFO: qHTS profiling for inhibitors of Plasmodium falciparum proliferation (AID 504749); also: nearly all actives have a fitted effect of over 60% in size
# CONDITIONS: P. falciparum in erythrocytes, SYBR Green DNA, 72 h; series mostly up to 28.7 µM
# Protocol: NIH National Institute of Allergy and Infectious Diseases [NIAID] NIH Chemical Genomics Center [NCGC] […] Because mature erythrocytes lack DNA, only Plasmodium-derived DNA is detected. NCGC Assay Protocol Summary: The SYBR Green viability assay was adapted from a method described previously (Plouffe et al., 2008). […] The following morning, fluorescence intensity at 485(14) nm excitation and 535(25) nm emission wavelengths was measured on an EnVision (Perkin Elmer) plate reader. […]
Records with an inconclusive call do not appear. Activity calls are given as the source filed them. Calls follow the shape of the dose curve; as a rule, active = well fitted inhibition curve with a large enough effect; inconclusive = small, poorly fitted or top-dose-only effect; inactive = flat fitted curve, though single readings scatter.
Answer with one of the outcomes given here: True (active), False (inactive)

Identify the outcome logged in this assay for the compound shown: `c1csc(C2(N3CCCCC3)CCCCC2)c1` False

For CC(N)Cc1ccc(O)cc1 (centres undefined) then? False

One more compound: CC(=O)OC1CN2CCC1CC2 (centres undefined) False

Repeat for the following compound: CN1C2CCC1CC(OC(c1ccccc1)c1ccc(Cl)cc1)C2 (centres undefined) True

Another compound: `CCOc1ccc2c3c1O[C@H]1[C@@H](O)C=C[C@H]4[C@@H](C2)N(C)CC[C@@]341` False

Again, but for `[Cl-].[Cl-].[Hg+2]` True

Note, next up: `COc1ccc2c3c1O[C@H]1C(=O)CC[C@H]4[C@@H](C2)N(C)CC[C@]314` False

Moving on to COc1ccc(OC)c(C(O)C(C)N)c1 (centres undefined) False

What about this compound? ClCC1CO1 (centres undefined) False

Consider next the compound C[C@H]1CC[C@@H]2[C@@H](C)[C@H]3[C@H](C[C@H]4[C@@H]5CC=C6CC(O[C@@H]7O[C@H](CO)[C@H](O)[C@H](O[C@@H]8O[C@H](CO)[C@@H](O)[C@H](O)[C@H]8O)[C@H]7O[C@H]7O[C@@H](C)[C@H](O)[C@@H](O)[C@H]7O)CC[C@]6(C)[C@H]5CC[C@]34C)N2C1 (some centres undefined) in the same way. False

Another compound to check: `O=S(=O)(O)c1cc(O)ccc1O` False

Input CCCN1CCCC2Cc3[nH]ncc3CC21 (centres undefined) False

Also need `c1ccc(C2(N3CCCC3)CCCCC2)cc1` , thanks. True

Would you kindly repeat that for `S=C=S` ? False

---

# System: CRL-7250
# ASSAY_INFO: Cytotoxic Profiling of Annotated Libraries Using Quantitative High-Throughput Screening (AID 1296008); also: % is scaled to controls: 0 for no effect and ±100 for the full control effect; nearly all actives have a fitted effect of over 60% in size
# CONDITIONS: Five cell lines viability, CellTiter-Glo ATP luminescence, 48-72 h; stronger effect = lower value
Records with an inconclusive call do not appear.
Provide the recorded max response for the entries that follow.
// units = %; emit number, no label

// lookup max response for `C[C@@](O)(COc1ccc(C#N)cc1)C(=O)Nc1ccc(C#N)c(C(F)(F)F)c1` -2.54

Another: `Clc1ccc(N2C[C@H]3CC[C@@H](C2)N3)nn1` -3.23

Try the compound `C[C@@H]1C(=O)O[C@H]2[C@H](O)[C@@]34[C@@H]5OC(=O)[C@@]3(O[C@@H]3OC(=O)[C@@H](O)[C@@]34[C@H](C(C)(C)C)[C@H]5O)[C@@]12O` -6.45

Also need `C=C(C)[C@H]1O[C@H]2CC[C@@]3(C)[C@@](O)(CC[C@H]4[C@@H]5OC(C)(C)[C@H]6C[C@@H]7C(=C)Cc8c(Cl)cc9[nH]c(c5c9c8[C@@]76O)[C@@]43C)[C@]23O[C@@H]3[C@H]1O` , thanks. -5.7

And then `C[C@]12CC[C@@H](O)C[C@H]1CC[C@@H]1[C@@H]2CC[C@]2(C)C(=O)CC[C@@H]12` , what is it? -3.83

Please answer likewise for C=CC(C)(O)CC/C=C(\C)C(=O)O[C@H]1[C@H](O)[C@@H](CO)O[C@@H](OC(=O)[C@]23CCC(C)(C)CC2C2=CCC4[C@@]5(C)CC[C@H](O[C@@H]6O[C@H](CO[C@@H]7OC[C@H](O)[C@H](O)[C@H]7O[C@@H]7OC[C@@H](O)[C@H](O)[C@H]7O)[C@@H](O)[C@H](O)[C@H]6O)C(C)(C)C5CC[C@@]4(C)[C@]2(C)CC3)[C@@H]1OC1OC(C)C(O[C@@H]2OC[C@@H](O)[C@H](O[C@@H]3OC[C@@H](O)[C@H](O)[C@H]3O)[C@H]2O)C(O)C1O (some centres undefined) -5.86

// query: CC(C)C1(OO)C=C2C(=O)CC3C(C)(C(=O)O)CCCC3(C)C2CC1 (centres undefined) -0.339

Now give it for `CCCCCOc1cc2c(cc1-c1cc(/C=C/C(=O)O)ccc1O)C(C)(C)CCC2(C)C` too. -2.58

Do the same for COC1CC(O[C@H]2CC[C@@]3(C)C(=CCC4C3C(O)[C@@H](O)[C@]3(C)[C@@H](C(C)=O)CC[C@]43O)C2)OC(C)C1OC1CC(OC)C(OC2OC(C)C(O)C(O)C2O)C(C)O1 (some centres undefined) please -8.18

Also need `COC(=O)N1CCN(C(=O)Cc2ccc(Cl)c(Cl)c2)[C@@H](CN2CCCC2)C1` , thanks. -2.38

Consider next the compound `C=C[C@H]1CN2CC[C@H]1C[C@@H]2[C@@H](O)c1ccnc2ccccc12` in the same way. -1.31

Cool, now CCC(C)(C#N)O[C@@H]1O[C@H](CO)[C@@H](O)[C@H](O)[C@H]1O (some centres undefined) -24.5

Same thing, different compound: `C=C[C@H]1[C@H](O[C@@H]2O[C@H](CO)[C@@H](O)[C@H](O)[C@H]2O)OC=C2C(=O)OCC[C@H]21` -1.15

And the next one, `C=C(CO)C(=O)O[C@H]1C/C(C)=C/CC/C(CO)=C/[C@H]2OC(=O)C(=C)[C@H]12` ? -2.43
